assayed_target: Neuropeptide Y receptor type 1 (Homo sapiens); note: in other assays of this panel Not Active means under 50% inhibition at 10 µM
Sequence (P25929 whole entry): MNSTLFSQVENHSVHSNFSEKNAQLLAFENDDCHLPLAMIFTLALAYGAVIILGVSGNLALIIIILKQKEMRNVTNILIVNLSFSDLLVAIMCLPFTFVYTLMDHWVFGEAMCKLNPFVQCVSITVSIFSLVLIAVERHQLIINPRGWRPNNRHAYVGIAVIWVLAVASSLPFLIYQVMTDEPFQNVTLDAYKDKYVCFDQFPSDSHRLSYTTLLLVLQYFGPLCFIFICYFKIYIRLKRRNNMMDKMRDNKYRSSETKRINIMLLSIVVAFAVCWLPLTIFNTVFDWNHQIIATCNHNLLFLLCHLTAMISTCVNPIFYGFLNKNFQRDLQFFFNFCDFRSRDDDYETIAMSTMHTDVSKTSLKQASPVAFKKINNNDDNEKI
Format: cell membranes, Membrane
study_conditions: sk-n-mc
measurement_label: IC50

See these solved cases before continuing.
CCOC(N)=O : Not Active
CC(C)(Oc1ccc(C2CC2(Cl)Cl)cc1)C(=O)O (stereo not drawn) [CIPROFIBRATE] : Not Active
CO[C@H]1C[C@@H]2CC[C@@H](C)[C@@](O)(O2)C(=O)C(=O)N2CCCC[C@H]2C(=O)O[C@H]([C@H](C)C[C@@H]2CC[C@@H](O)[C@H](OC)C2)CC(=O)[C@H](C)/C=C(\C)[C@@H](O)[C@@H](OC)C(=O)[C@H](C)C[C@H](C)/C=C/C=C/C=C/1C : Not Active
NC(=O)N1c2ccccc2C=Cc2ccccc21 [CARBAMAZEPINE] : Not Active
CO[C@H]1[C@@H](O)[C@H](N)[C@@H](O[C@H]2O[C@H]([C@H](C)N)CC[C@H]2N)[C@H](O)[C@@H]1N(C)C(=O)CN : Not Active
O=C(/C=C/c1ccc(O)c(O)c1)OCCc1ccccc1 : Not Active

Report IC50 for each item below.
1. COc1ccccc1OCC(O)COC(N)=O (stereo not drawn)
2. CC(=O)O[C@]1(C(C)=O)CC[C@H]2[C@@H]3C=C(C)C4=CC(=O)CC[C@]4(C)[C@H]3CC[C@@]21C [MEGESTROL ACETATE]
3. CC1=C(CC(=O)O)c2cc(F)ccc2/C1=C\c1ccc(S(C)(=O)=O)cc1
4. CN(Cc1cnc2nc(N)nc(N)c2n1)c1ccc(C(=O)N[C@@H](CCC(=O)O)C(=O)O)cc1 [METHOTREXATE]
5. C[C@@H]1C[C@H]2[C@@H]3CCC4=CC(=O)C=C[C@]4(C)C3=CC[C@]2(C)[C@H]1C(=O)CN1CCN(c2cc(N3CCCC3)nc(N3CCCC3)n2)CC1

["Not Active", "Not Active", "Not Active", "Not Active", "Not Active"]
